Can you tell me PBM E-score for the items I'm about to list?
# Tgt: Hap1 (UniProt P0CE41)
# Sequence (P0CE41 whole entry): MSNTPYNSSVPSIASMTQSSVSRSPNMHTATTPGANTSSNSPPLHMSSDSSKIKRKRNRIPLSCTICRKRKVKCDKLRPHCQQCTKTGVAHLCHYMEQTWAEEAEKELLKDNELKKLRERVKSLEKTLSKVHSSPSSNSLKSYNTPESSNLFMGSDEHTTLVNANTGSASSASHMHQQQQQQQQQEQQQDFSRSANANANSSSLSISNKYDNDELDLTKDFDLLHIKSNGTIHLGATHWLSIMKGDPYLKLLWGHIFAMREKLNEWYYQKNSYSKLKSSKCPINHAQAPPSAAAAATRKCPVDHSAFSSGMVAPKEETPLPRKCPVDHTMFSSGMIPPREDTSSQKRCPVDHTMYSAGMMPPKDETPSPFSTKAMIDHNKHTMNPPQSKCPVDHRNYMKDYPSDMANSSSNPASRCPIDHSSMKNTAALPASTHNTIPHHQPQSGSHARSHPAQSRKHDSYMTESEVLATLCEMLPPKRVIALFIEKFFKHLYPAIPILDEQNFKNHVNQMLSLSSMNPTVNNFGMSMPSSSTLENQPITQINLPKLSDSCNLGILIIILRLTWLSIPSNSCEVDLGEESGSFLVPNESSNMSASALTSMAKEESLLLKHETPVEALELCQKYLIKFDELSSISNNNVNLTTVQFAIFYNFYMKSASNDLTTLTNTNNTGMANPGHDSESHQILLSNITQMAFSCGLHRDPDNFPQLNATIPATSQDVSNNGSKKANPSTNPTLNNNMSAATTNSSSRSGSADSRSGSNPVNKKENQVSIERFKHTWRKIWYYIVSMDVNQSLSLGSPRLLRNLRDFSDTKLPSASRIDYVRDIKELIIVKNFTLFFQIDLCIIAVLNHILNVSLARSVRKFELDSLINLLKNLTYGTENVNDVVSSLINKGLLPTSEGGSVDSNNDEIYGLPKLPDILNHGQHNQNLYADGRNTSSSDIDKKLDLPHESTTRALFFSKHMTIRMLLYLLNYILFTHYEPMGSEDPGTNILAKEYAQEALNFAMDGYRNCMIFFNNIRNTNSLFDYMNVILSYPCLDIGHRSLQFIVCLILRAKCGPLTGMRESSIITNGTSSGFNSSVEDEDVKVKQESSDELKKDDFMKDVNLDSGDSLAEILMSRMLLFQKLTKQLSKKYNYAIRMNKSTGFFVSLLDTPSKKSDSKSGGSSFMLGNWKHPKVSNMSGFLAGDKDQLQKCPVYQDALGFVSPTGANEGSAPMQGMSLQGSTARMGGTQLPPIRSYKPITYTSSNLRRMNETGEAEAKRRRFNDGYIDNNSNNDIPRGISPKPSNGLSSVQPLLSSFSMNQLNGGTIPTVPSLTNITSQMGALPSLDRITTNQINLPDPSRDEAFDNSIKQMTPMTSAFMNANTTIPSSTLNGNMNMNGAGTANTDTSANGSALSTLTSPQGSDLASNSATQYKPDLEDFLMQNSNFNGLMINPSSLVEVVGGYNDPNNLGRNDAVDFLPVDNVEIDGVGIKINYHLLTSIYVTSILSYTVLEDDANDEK
# Assay procedure: PBM E-score (8-mer binding enrichment) (E-score (-0.5 to 0.5)); higher = stronger / more preferred TF binding
# Experimental context: protein concentration: 200 nM; construct: GST-DNA-binding domain
The full ranking holds about 33,000 sequences; the median of “E-score (-0.5 to 0.5)” is about -0.053, and the highest 2% start at about 0.37. For the sample, the highest values were picked, then their nearest neighbours and some sequences at random.
Answers are plain numbers.

INSERT INTO results (residues, tgt, observed) VALUES
  ('AGAGCGGA', 'Hap1 (UniProt P0CE41)', 0.13),
  ('GTTCCATA', 'Hap1 (UniProt P0CE41)', -0.0357);

I need PBM E-score for every entry listed below, if you could help.
1. ACTATCGA
2. AGTACTTC
3. CACACCGG
4. CCCTCCAC
5. CGAGCGGC
6. CCCCGGTA

Result:
1: -0.0147; 2: 0.153; 3: 0.288; 4: -0.233; 5: 0.238; 6: 0.334

I need PBM E-score for every entry listed below, if you could help.
1. AACACCGT
2. CCCACCGG
3. AACACCGA
4. ATAAGCCG
5. AAGGATGG

Result:
1. 0.245
2. 0.374
3. 0.446
4. 0.3
5. -0.188

----------
# Tgt: Hap1 (UniProt P0CE41)
# Assay procedure: PBM E-score (8-mer binding enrichment) (E-score (-0.5 to 0.5)); higher = stronger / more preferred TF binding
# Experimental context: protein concentration: 200 nM; construct: GST-DNA-binding domain
The full ranking holds about 33,000 sequences; the median of “E-score (-0.5 to 0.5)” is about -0.053, and the highest 2% start at about 0.37. The list comes from a sample in which the highest values are over-represented; it also holds close analogues and randomly drawn sequences.
Can you tell me PBM E-score for the items I'm about to list?
Answers are plain numbers.

Example entries begin here.
INSERT INTO results (residues, observed) VALUES
  ('GGGACTTA', 0.0397),
  ('GAAGTGGC', -0.0295);

# PBM E-score (sequence: GCCCTCGC ) is -0.0401

----------
# Tgt: Hap1 (UniProt P0CE41)
# Assay procedure: PBM E-score (8-mer binding enrichment) (E-score (-0.5 to 0.5)); higher = stronger / more preferred TF binding
# Experimental context: protein concentration: 200 nM; construct: GST-DNA-binding domain
In all, about 33,000 sequences were measured (“E-score (-0.5 to 0.5)”: median about -0.053, highest 2% from about 0.37 on). The entries come from a sample that favours the highest values as a whole.
// label = 1 if PBM E-score is not less than 0.2, otherwise -1

INSERT INTO results (residues, assigned_class) VALUES
  ('CCGCGGAG', 1),
  ('AGGCGGAA', -1);

Ask: Record CATGTCCC ; criterion: PBM E-score no lower than 0.2. Met?
Result: -1

Ask: Record CTCGGAGA ; criterion: PBM E-score no lower than 0.2. Met?
Result: 1

Ask: Record GAAAATCC ; criterion: PBM E-score no lower than 0.2. Met?
Result: -1

Ask: Record CCGCGGAA ; criterion: PBM E-score no lower than 0.2. Met?
Result: 1

Ask: Record CATGTCCG ; criterion: PBM E-score no lower than 0.2. Met?
Result: 1

Ask: Record CGGCGGAA ; criterion: PBM E-score no lower than 0.2. Met?
Result: 1

Ask: Record ACCGGATC ; criterion: PBM E-score no lower than 0.2. Met?
Result: 1

Ask: Record CCGGACTC ; criterion: PBM E-score no lower than 0.2. Met?
Result: 1
